Provide the recorded Emax for the entries that follow.
tested system: T1, human DLL3 on cells (human, UniProt Q9NYJ7 27-618)
T1 construct: Endogenous on H1184 and SHP77; Cell line is named under assay; also called H1184; DLL3/H82
T1 sequence: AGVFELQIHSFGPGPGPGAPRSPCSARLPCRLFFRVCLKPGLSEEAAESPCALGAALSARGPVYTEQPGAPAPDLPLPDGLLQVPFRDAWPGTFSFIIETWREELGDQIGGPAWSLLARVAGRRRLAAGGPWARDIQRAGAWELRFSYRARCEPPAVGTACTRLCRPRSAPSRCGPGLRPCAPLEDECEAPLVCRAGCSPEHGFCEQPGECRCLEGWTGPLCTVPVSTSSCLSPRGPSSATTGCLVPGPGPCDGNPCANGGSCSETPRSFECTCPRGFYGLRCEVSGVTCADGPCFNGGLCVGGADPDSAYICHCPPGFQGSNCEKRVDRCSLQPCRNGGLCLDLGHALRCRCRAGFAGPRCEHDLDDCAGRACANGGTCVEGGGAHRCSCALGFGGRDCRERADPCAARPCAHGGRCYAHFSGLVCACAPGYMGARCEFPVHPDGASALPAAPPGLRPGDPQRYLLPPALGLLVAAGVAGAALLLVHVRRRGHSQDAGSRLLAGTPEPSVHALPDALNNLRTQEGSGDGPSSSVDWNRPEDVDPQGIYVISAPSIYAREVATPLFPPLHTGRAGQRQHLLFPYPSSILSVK
test summary: flow cytometry, SHP77 cells
Method: The plates were centrifuged at 300 g for 5 min, and the supernatant was removed. Different concentrations of test antibodies were added at 100 μL/well. The plates were incubated in the dark in a refrigerator at 4° C. for 1 h. […] After 3 centrifugal washes at 300 g, the geometric mean fluorescence intensity was measured on an Invitrogen flow cytometer, and the EC50 values for the binding of the antibodies to DLL3-expressing cells were calculated.
Hey, just send me the number, nothing else.

// Emax lookup, binder = hu30L5H9 (antibody, human IgG1, kappa, V domains shown) VH: EVRLVQSGAEVKKPGASVKVSCKASGYTFTDYYMNWVRQAPGQSLEWIGIINPYTGDTSYNQKFRGRATLTVDKSASTAYMELSSLRSEDTAVYYCARYHYGPHLEGYFDVWGQGTTVTVSS VL: DIQMTQSPSSLSASVGDRVTITCKASENVGYVSWYQQKPGKSPKLLIYGASNRYTGVPDRFSGSGSGTDFTLTISSLQPEDFATYYCGQSYSYPLTFGSGTKLEIKR , result: 1560

// Emax lookup, binder = hu30L1H5 (antibody, human IgG1, kappa, V domains shown) VH: EVRLVQSGAEVKKPGASVKVSCKASGYTFTDYYMNWVRQAPGQSLEWMGIINPYTGDTSYNQKFRGRVTLTVDKSASTAYMELSSLRSEDTAVYYCARYHYGPHLEGYFDVWGQGTTVTVSS VL: DIVMTQSPDSLAVSLGERATINCKASENVGYVSWYQQKPGQPPKLLIYGASNRYTGVPDRFSGSGSGTDFTLTISSLQAEDVAVYYCGQSYSYPLTFGQGTKLEIKR , result: 1540

// Emax lookup, binder = hu30L1H8 (antibody, human IgG1, kappa, V domains shown) VH: EVRLVQFGAVVKKPGASVKVSCKASGYTFTDYYMNWVRQAPGQSLEWMGIINPYTGDTSYNQKFRGRVTLTVDKSSSTAYMELSSLRSEDTAVYYCARYHYGPHLEGYFDVWGQGTTVTVSS VL: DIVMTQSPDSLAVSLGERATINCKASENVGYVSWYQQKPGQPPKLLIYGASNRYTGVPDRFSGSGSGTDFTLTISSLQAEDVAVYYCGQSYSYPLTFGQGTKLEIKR , result: 1380
